Documented %Inh across a set of molecules
Tested on: NEK6;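 also: KINOMEscan kinase panel screen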
test-context: concentration: 1 μM, replicates: in singlicate; n = 1

smiles-notation	%Inh [%]
O=C(NOCC1CC1)c1ccc(F)c(F)c1Nc1ccc(I)cc1Cl	0
CC(=O)Nc1ccc(COc2ccc(Nc3ccnc4cc(-c5ccccn5)ccc34)cc2)cc1.Cl	0
COc1cc2ncn(-c3cc(OCc4sccc4Cl)c(C(N)=O)s3)c2cc1OC	0
Cn1cc(-c2ccc3c(c2)CCN3C(=O)Cc2ccccc2Cl)c2c(N)ncnc21	3
O=C1NC(=O)C(N2CCc3ccccc32)=C1c1cccc(Cl)c1	9
O=C(NCCCN1CCOCC1)c1cccc(Nc2nccc(Nc3ccc(Oc4ccccc4)cc3)n2)c1	15
N#Cc1ccc(-c2cc(-c3c[nH]nc3-c3ccccn3)ccn2)cc1	0
[2H]C([2H])(c1cccc(C(F)(F)F)c1C)n1ccn2c(=O)nc(N3CCOCC3)cc12	0
Cn1ccc2ncnc(Oc3ccc(NC(=O)Nc4ccncc4)c(Cl)c3)c21	0

Value source: paper PMC5540273
